- TARGET_OR_TEST_SYSTEM: Adrenergic receptor alpha-1 (Rattus norvegicus, UniProt P15823+P23944+P43140)
- ASSAY_SUMMARY: Antagonist activity at alpha1-adrenoceptor in rat anococcygeal muscle assessed as inhibition of phenylephrine-induced contraction
- Type: functional
Could you label it fulfilled if measured pA2 is 7 or higher, and not fulfilled otherwise?

Recorded results for 5 compounds are shown here.
smiles_str=Cc1ccccc1N1CCN(CCCCOc2ccc3c(=O)cc(-c4ccccc4)oc3c2)CC1 qualitative_label=fulfilled
smiles_str=O=c1cc(-c2ccc(Cl)cc2)oc2cc(OCCCCBr)ccc12 qualitative_label="not fulfilled"
smiles_str=Cc1ccc(N2CCN(CCCCOc3ccc4c(=O)cc(-c5ccccc5)oc4c3)CC2)cc1 qualitative_label="not fulfilled"
smiles_str=Cc1ccc(N2CCN(CCCCOc3ccc4c(=O)cc(-c5ccc(Cl)cc5)oc4c3)CC2)cc1 qualitative_label=fulfilled
smiles_str=Cc1ccc(N2CCN(CCOc3ccc4c(=O)cc(-c5ccccc5)oc4c3)CC2)cc1 qualitative_label=fulfilled

Q. Form field: pA2 at least 7? Entry: Cc1ccc(N2CCN(CCCOc3ccc4c(=O)cc(-c5ccccc5)oc4c3)CC2)cc1
A. fulfilled

====

- TARGET_OR_TEST_SYSTEM: Adrenergic receptor alpha-1 (Rattus norvegicus, UniProt P15823+P23944+P43140)
- Sequence (P15823 whole entry): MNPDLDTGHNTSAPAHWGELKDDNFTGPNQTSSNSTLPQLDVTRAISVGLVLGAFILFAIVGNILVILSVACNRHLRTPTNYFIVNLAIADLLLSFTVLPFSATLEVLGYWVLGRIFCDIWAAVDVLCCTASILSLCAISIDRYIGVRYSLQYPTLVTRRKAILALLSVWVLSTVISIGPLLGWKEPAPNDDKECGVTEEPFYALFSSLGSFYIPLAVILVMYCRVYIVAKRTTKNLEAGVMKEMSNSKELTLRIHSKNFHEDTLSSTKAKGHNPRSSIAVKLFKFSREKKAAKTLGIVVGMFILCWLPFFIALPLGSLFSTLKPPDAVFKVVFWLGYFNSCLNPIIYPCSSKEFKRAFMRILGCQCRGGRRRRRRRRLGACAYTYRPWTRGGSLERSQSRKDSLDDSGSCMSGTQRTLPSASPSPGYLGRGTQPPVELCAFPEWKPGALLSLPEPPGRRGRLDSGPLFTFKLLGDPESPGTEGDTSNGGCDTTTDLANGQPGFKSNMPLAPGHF
- Sequence (P23944 whole entry): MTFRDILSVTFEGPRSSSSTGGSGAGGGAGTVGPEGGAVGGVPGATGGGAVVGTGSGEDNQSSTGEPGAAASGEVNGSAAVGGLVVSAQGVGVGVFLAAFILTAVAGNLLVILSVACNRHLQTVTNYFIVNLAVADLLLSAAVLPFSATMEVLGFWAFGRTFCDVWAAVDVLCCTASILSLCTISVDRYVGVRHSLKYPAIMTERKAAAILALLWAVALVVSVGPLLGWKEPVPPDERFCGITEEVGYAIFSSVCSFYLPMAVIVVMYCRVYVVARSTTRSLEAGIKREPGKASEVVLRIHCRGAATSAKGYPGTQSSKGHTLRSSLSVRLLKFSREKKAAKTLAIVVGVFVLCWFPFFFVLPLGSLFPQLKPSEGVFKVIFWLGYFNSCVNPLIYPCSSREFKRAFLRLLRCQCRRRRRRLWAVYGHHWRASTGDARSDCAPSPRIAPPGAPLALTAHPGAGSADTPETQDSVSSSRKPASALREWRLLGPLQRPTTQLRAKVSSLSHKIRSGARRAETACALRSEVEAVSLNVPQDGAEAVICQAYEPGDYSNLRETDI
- Sequence (P43140 whole entry): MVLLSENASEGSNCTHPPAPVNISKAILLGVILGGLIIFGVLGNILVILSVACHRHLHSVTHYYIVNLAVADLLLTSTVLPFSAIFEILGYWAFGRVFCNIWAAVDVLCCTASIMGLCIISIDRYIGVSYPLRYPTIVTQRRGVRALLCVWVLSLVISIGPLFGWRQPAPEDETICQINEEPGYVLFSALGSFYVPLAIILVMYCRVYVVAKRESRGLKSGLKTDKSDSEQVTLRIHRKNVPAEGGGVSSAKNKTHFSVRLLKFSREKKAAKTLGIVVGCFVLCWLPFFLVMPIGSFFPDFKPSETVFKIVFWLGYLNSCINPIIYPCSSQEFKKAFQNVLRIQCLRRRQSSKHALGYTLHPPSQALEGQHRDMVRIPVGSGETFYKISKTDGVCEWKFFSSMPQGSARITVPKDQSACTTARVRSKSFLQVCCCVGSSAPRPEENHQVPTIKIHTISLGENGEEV
- ASSAY_SUMMARY: Antagonist activity at alpha1-adrenoceptor in rat anococcygeal muscle assessed as inhibition of phenylephrine-induced contraction
- Assay type: functional
REPORTED_METRIC: pA2
Just the number, please, no unit attached.

Here's what some known entries look like.
compound=O=c1cc(-c2ccc(Cl)cc2)oc2cc(O)ccc12 target_or_test_system="Adrenergic receptor alpha-1 (Rattus norvegicus, UniProt P15823+P23944+P43140)" obs_value=6.845
compound=Cc1ccc(N2CCN(CCOc3ccc4c(=O)cc(-c5ccc(Cl)cc5)oc4c3)CC2)cc1 target_or_test_system="Adrenergic receptor alpha-1 (Rattus norvegicus, UniProt P15823+P23944+P43140)" obs_value=8.93
compound=O=c1cc(-c2ccccc2)oc2cc(OCCCBr)ccc12 target_or_test_system="Adrenergic receptor alpha-1 (Rattus norvegicus, UniProt P15823+P23944+P43140)" obs_value=6.409
compound="O=c1cc(-c2ccccc2)oc2cc(O)ccc12 [7-HYDROXYFLAVONE]" target_or_test_system="Adrenergic receptor alpha-1 (Rattus norvegicus, UniProt P15823+P23944+P43140)" obs_value=6.609

Now for the compound whose pA2 we want.
Q. Give the measured pA2 of O=c1cc(-c2ccccc2)oc2cc(OCCN3CCN(c4ccccc4)CC3)ccc12 .
A. 8.526

====

- TARGET_OR_TEST_SYSTEM: Adrenergic receptor alpha-1 (Rattus norvegicus, UniProt P15823+P23944+P43140)
- ASSAY_SUMMARY: Antagonist activity at alpha1-adrenoceptor in rat anococcygeal muscle assessed as inhibition of phenylephrine-induced contraction
- Format: functional
Listed next: entries and their corresponding pA2.

Here's what some known entries look like.
smiles_str=Cc1ccccc1N1CCN(CCCCOc2ccc3c(=O)cc(-c4ccc(Cl)cc4)oc3c2)CC1 obs_value=7.471
smiles_str=O=c1cc(-c2ccc(Cl)cc2)oc2cc(OCCCCN3CCN(c4ccccc4)CC3)ccc12 obs_value=7.914
smiles_str=Cc1ccccc1N1CCN(CCOc2ccc3c(=O)cc(-c4ccccc4)oc3c2)CC1 obs_value=7.383

Now for the molecule whose pA2 we want.
Q. Record O=c1cc(-c2ccccc2)oc2cc(OCCCCBr)ccc12 : what is its pA2 with Adrenergic receptor alpha-1 (Rattus norvegicus, UniProt P15823+P23944+P43140)?
A. 6.538
